- assay-explanation: Solubility in pure water
- Type: physicochemical
- experimental-conditions: Example 2
value-kind: Water Solubility (mM)
The figure you give is taken to be in mM; do not add the unit.

Worked cases, answers included:
compound: OCC[n+]1ccc(-c2cc[n+](CCO)cc2)cc1.[Cl-].[Cl-]
test-result: 2510

compound: OCC(O)C[n+]1ccc(-c2cc[n+](CC(O)CO)cc2)cc1.[Cl-].[Cl-] (centres unmarked)
test-result: 1990

compound: OCCCC[n+]1ccc(-c2cc[n+](CCCCO)cc2)cc1.[Cl-].[Cl-]
test-result: 1360

compound: C[N+](C)(C)CC(O)C[n+]1ccc(-c2cc[n+](CC(O)CS(=O)(=O)[O-])cc2)cc1.[Cl-].[Cl-] (centres unmarked)
test-result: 1270

compound: C[N+](C)(C)CC(O)C[n+]1ccc(-c2cc[n+](CC(O)CO)cc2)cc1.[Cl-].[Cl-].[Cl-] (centres unmarked)
test-result: 1730

compound: O=S(=O)([O-])CC[n+]1ccc(-c2cc[n+](CCS(=O)(=O)[O-])cc2)cc1
test-result: 530

Give its Water Solubility value. Item: O=S(=O)([O-])CC[n+]1ccc(-c2cc[n+](CC(O)CO)cc2)cc1.[Cl-] (centres unmarked)
1260
